assay: The drug is tested on WLS-220 corresponding to human gut metagenome with ENA study accession number: PRJEB37062 and ENA sample accession number: ERS12561769 for biotransformation under anaerobic condition. The drug concentrations were measured over 9 timepoints collected between 0 and 24 hours of incubation by liquid-chromatography-coupled mass spectrometry (LC–MS); conditions: 2 µM; note: call rule not given here
quantity.name: Bacterial Biotransformation

Field: example entries. Status: answers known.
- Br.CN1CCC[C@@H]1Cc1c[nH]c2ccc(CCS(=O)(=O)c3ccccc3)cc12 [ELETRIPTAN HYDROBROMIDE]: Compound metabolized
- O=C(O)c1cc(/N=N/c2ccc(S(=O)(=O)Nc3ccccn3)cc2)ccc1O [SULFASALAZINE]: Compound metabolized
- COc1ccc(/C=C/C(=O)Nc2ccccc2C(=O)O)cc1OC: Compound NOT metabolized
- c1ccc2[nH]c(-c3cscn3)nc2c1 [THIABENDAZOLE]: Compound NOT metabolized

[Q] Fill in Bacterial Biotransformation for record CCN(CC)CCNC(=O)c1ccc(NC(C)=O)cc1 [ACECAINIDE]
[A] Compound NOT metabolized
